// provenance: paper PMC12416549

Target: T1, TNFR1 (Homo sapiens, UniProt P19438)
T1 chain: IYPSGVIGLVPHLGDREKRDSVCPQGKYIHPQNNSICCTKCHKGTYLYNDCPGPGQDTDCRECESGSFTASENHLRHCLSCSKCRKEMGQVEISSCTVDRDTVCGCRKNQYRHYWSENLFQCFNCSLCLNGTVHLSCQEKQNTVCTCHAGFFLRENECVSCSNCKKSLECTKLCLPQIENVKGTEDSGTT
Assay: yeast display SC50
measurement-type: apparent Kd (screen) (nM)

binder	apparent Kd (screen) [nM]
R8N (designed binder) MTLQELLNEEALRRAEAEAFRYALELLAEKFPEQKEYLLDLAEEIESQIRSLSGVDVEDVRKFLDKEWAWVKELLAEHPAELAEVEAARAARLAELRAEVEAKVAA	0.539
A69K (designed binder) MTLQELLREEALRRAEAEAFRYALELLAEKFPEQKEYLLDLAEEIESQIRSLSGVDVEDVRKFLDKEWKWVKELLAEHPAELAEVEAARAARLAELRAEVEAKVAA	0.593
